# studyTarget: HCMV polymerase (Human cytomegalovirus)
# Construct: made in house; host or cells: recombinant baculovirus-infected SF-9 cells
# assayComment: HCMV polymerase scintillation proximity assay (SPA), modified version
# Type: biochemical
# experimentalConditions: CMV polymerase; Table 1; modified assay with 4.5 mM DTT, compounds in 100% DMSO; read-out: Antiviral Selective Polymerase IC50 Values, CMV
pIC50: −log10 of the molar value.
readoutName: pIC50

These recorded examples may help you get a feel for the data.
Req: For the compound shown here, CC(C)(C)c1ccc2ncc(C(=O)NCc3ccc(Cl)cc3)c(O)c2c1 [Example 63] , give the reported pIC50.
Resp: 5.15

Req: pIC50 for O=C(NCc1ccc(Cl)cc1)c1cnc2c(F)cc(S(=O)(=O)NCCc3ccc(O)c(O)c3)cc2c1O [Example 246] ?
Resp: 5.07

Req: What does the data say about its pIC50? Entry: O=C(NCc1ccc(Cl)cc1)c1cnc2c(F)cc(-c3ccccn3)cc2c1O [Example 90]
Resp: 5.54

1 = Cc1cc(F)c2ncc(C(=O)NCc3ccc(Cl)cc3)c(O)c2c1 [Example 38]
2 = NC(=O)CNS(=O)(=O)c1cc(F)c2ncc(C(=O)NCc3ccc(Cl)cc3)c(O)c2c1 [Example 265]
Req: Could you point out whether the larger pIC50 belongs to 1 or to 2 ? // output: label of the selected item
Resp: 1
(1: 5.49, 2: 4.94)

* * *

# studyTarget: HCMV polymerase (Human cytomegalovirus, UniProt P08546)
# Construct: made in house; host or cells: recombinant baculovirus-infected SF-9 cells
# Sequence (P08546 whole entry): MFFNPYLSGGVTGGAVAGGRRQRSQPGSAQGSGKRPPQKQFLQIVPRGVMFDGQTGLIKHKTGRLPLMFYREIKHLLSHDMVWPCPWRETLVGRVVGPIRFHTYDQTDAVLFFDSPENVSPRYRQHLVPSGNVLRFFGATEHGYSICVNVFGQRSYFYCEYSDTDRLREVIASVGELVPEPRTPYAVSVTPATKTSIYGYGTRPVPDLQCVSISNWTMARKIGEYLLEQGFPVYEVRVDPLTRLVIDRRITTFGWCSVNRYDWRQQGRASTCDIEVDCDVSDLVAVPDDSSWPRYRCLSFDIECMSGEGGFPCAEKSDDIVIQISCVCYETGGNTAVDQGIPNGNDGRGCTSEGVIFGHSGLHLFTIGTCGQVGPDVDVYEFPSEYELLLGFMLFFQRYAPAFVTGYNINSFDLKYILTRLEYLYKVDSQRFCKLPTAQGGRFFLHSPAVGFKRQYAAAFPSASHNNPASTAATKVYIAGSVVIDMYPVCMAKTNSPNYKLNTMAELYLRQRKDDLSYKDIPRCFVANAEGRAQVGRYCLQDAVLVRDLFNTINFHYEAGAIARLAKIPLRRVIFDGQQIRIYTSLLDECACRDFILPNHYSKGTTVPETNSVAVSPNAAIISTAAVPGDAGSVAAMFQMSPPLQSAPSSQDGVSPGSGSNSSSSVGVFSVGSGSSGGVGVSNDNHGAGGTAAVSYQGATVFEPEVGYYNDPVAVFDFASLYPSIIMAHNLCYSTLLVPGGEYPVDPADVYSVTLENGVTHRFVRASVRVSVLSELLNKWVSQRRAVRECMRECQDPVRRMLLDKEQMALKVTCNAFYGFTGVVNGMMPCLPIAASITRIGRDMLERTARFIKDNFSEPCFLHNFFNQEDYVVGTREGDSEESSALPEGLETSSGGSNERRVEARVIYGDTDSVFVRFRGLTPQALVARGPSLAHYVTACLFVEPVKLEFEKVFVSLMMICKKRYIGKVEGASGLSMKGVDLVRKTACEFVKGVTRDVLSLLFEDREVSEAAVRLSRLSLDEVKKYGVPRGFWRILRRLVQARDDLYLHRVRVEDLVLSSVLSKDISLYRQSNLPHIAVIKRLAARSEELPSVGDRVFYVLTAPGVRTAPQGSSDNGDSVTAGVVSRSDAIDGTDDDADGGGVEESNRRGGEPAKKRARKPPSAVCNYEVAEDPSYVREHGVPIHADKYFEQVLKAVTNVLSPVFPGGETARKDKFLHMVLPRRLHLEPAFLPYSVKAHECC
# assayComment: HCMV polymerase scintillation proximity assay (SPA), modified version
# Assay type: biochemical
# experimentalConditions: CMV polymerase; Table 1; modified assay with 4.5 mM DTT, compounds in 100% DMSO; read-out: Antiviral Selective Polymerase IC50 Values, CMV
readoutName: IC50 (µM)

Req: Given the entry O=C(CN1CCOCC1)OCCCc1cc(F)c2ncc(C(=O)NCc3ccc(Cl)cc3)c(O)c2c1 , report its measured IC50.
Resp: 7

Req: Returns the measured IC50 for the input compound. Input: COc1cccc2c(O)c(C(=O)NCc3ccc(Cl)cc3)cnc12
Resp: 6.5

Req: Consider the compound Cc1c(N)ccc2c(O)c(C(=O)NCc3ccc(Cl)cc3)cnc12 and give its measured IC50.
Resp: 6.9

a = N#CCNS(=O)(=O)c1cc(F)c2ncc(C(=O)NCc3ccc(Cl)cc3)c(O)c2c1
b = O=C(NCc1ccc(Cl)cc1)c1cnc2c(F)cc(-c3nccs3)cc2c1O
Req: Sort a and b by IC50 descending and give the first. Could you answer with the label of the item you picked?
Resp: a

* * *

# studyTarget: HCMV polymerase (Human cytomegalovirus, UniProt P08546)
# Construct: made in house; host or cells: recombinant baculovirus-infected SF-9 cells
# assayComment: HCMV polymerase scintillation proximity assay (SPA), modified version
# Assay type: biochemical
# experimentalConditions: CMV polymerase; Table 1; modified assay with 4.5 mM DTT, compounds in 100% DMSO; read-out: Antiviral Selective Polymerase IC50 Values, CMV
pIC50: −log10 of the molar value.
readoutName: pIC50

I = O=C(NCc1ccc(Cl)cc1)c1cnc2c(F)cc(S(=O)(=O)NCC3CCCCC3)cc2c1O
II = O=C(NCc1ccc(Cl)cc1)c1cnc2c(F)cc(S(=O)(=O)NCc3ccc(Br)cc3)cc2c1O
Req: Lab notebook, comparison: I versus II , higher pIC50 goes to which? Label of pick, please.
Resp: I
(I: 5.22, II: 4.83)

I = CCSC/C=C\c1cc(F)c2ncc(C(=O)NCc3ccc(Cl)cc3)c(O)c2c1
II = O=C(NCc1ccc(Cl)cc1)c1cnc2c(F)cc(S(=O)(=O)NCc3ccco3)cc2c1O [Example 204]
III = O=C(NCc1ccc(Cl)cc1)c1cnc2c(F)cc(S(=O)(=O)NCCCN3CCOCC3)cc2c1O
Req: List from greatest to least pIC50. Reply format: the labels, ordered as requested.
Resp: I, II, III
(I: 6.00, II: 4.86, III: 4.53)
